Assign Int.* (Ratio) (Interference) to each entry below.
tested on: HCV NS3 helicase NS3h_1b(con1) (Hepatitis C virus genotype 1b, UniProt Q9WMX2)
Construct: truncated C-terminally His-tagged NS3 proteins lacking the N-terminal protease, called NS3h; His-tag (C); made in house
Sequence (Q9WMX2 1192-1657): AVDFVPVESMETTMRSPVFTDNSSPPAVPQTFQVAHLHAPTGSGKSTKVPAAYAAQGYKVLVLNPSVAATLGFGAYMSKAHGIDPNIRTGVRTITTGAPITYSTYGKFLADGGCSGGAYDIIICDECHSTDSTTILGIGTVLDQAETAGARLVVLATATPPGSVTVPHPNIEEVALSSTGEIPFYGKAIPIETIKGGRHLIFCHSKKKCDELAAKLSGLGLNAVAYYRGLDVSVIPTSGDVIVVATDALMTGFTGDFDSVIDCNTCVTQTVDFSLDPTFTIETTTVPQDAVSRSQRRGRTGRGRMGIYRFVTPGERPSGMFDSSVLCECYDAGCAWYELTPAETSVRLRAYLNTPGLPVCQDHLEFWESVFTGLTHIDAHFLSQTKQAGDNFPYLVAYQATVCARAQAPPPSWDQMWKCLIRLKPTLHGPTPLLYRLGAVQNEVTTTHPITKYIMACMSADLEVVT
assay comment: MBHA screen of NCI mechanistic set library at 20 μM (percent inhibition, compound interference)
Type: biochemical
condition parameters: compounds at 20 μM, MBHA with DNA substrate; assay interference calculated with Equation 2
Method: All molecular beacon-based helicase assays (MBHAs) were performed according to known methods (Belon & Frick (2008) supra; Belon & Frick (2009) supra). […] Fluorescence was read before ATP (F0) addition and 30 minutes after ATP was added to 1 mM (F30) using a Tecan Infinite M200 fluorescence microplate reader with excitation and emission wavelengths set to 643 and 670 nm, respectively. […]
Numbers only; they are read as Ratio.

Enquiry: Check HCV NS3 helicase NS3h_1b(con1) (Hepatitis C virus genotype 1b, UniProt Q9WMX2) data and give Int.* (Ratio) (Interference) for OC[C@H]1O[C@@H](n2cnc3cncnc32)[C@H](O)[C@@H]1O [Compound 65423] .
Return: 1.12

Enquiry: Check HCV NS3 helicase NS3h_1b(con1) (Hepatitis C virus genotype 1b, UniProt Q9WMX2) data and give Int.* (Ratio) (Interference) for CC[C@@]1(O)C[C@H](O)c2c(O)c3c(c(O)c2[C@H]1C(=O)OC)C(=O)c1cccc(O)c1C3=O [Compound 196524] .
Return: 1.02

Enquiry: Check HCV NS3 helicase NS3h_1b(con1) (Hepatitis C virus genotype 1b, UniProt Q9WMX2) data and give Int.* (Ratio) (Interference) for COc1ccc(NC2=NCCO2)c2c1CCCC2 [Compound 663996] .
Return: 1.08

Enquiry: Check HCV NS3 helicase NS3h_1b(con1) (Hepatitis C virus genotype 1b, UniProt Q9WMX2) data and give Int.* (Ratio) (Interference) for COc1ccc(NC(=O)C(=O)/C=C(\O)c2ccccc2)cc1 [Compound 658709] .
Return: 0.90

Enquiry: Check HCV NS3 helicase NS3h_1b(con1) (Hepatitis C virus genotype 1b, UniProt Q9WMX2) data and give Int.* (Ratio) (Interference) for O=[N+]([O-])c1ccc(-c2cn(-c3ccc(Cl)cc3)cn2)cc1 [Compound 610744] .
Return: 0.83

Enquiry: Check HCV NS3 helicase NS3h_1b(con1) (Hepatitis C virus genotype 1b, UniProt Q9WMX2) data and give Int.* (Ratio) (Interference) for CCN(CCO)CCNc1ccc(C)c2sc3ccccc3c(=O)c12 [Compound 20534] .
Return: 0.96

Enquiry: Check HCV NS3 helicase NS3h_1b(con1) (Hepatitis C virus genotype 1b, UniProt Q9WMX2) data and give Int.* (Ratio) (Interference) for O=C(N=Nc1c(O)[nH]c2c(Cl)cc(Cl)cc12)c1ccccc1O [Compound 320864] .
Return: 0.80

Enquiry: Check HCV NS3 helicase NS3h_1b(con1) (Hepatitis C virus genotype 1b, UniProt Q9WMX2) data and give Int.* (Ratio) (Interference) for CC1OC(O[C@@H]2C=C3CC[C@@H]4[C@H](CC[C@]5(C)[C@@H](c6ccc(=O)oc6)CC[C@]45O)[C@@]3(C)CC2)C(O)C(O)C1O (some centres unmarked) [Compound 7521] .
Return: 0.94

Enquiry: Check HCV NS3 helicase NS3h_1b(con1) (Hepatitis C virus genotype 1b, UniProt Q9WMX2) data and give Int.* (Ratio) (Interference) for CC(=O)O[C@]1(C(C)=O)CC[C@H]2[C@@H]3C[C@H](C)C4=CC(=O)C=C[C@]4(C)[C@@]3(F)[C@@H](O)C[C@@]21C [Compound 47438] .
Return: 1.18

Enquiry: Check HCV NS3 helicase NS3h_1b(con1) (Hepatitis C virus genotype 1b, UniProt Q9WMX2) data and give Int.* (Ratio) (Interference) for COc1cc2c[n+](C)c3c4cc5c(cc4ccc3c2cc1OC)OCO5 [Compound 146397] .
Return: 0.67

Enquiry: Check HCV NS3 helicase NS3h_1b(con1) (Hepatitis C virus genotype 1b, UniProt Q9WMX2) data and give Int.* (Ratio) (Interference) for Cc1c(N)nc([C@H](CC(N)=O)NC[C@H](N)C(N)=O)nc1C(=O)N[C@H](C(=O)N[C@H](C)[C@@H](O)[C@H](C)C(=O)N[C@H](C(=O)NCCc1nc(-c2nc(C(=O)NCCC[S+](C)C)cs2)cs1)[C@@H](C)O)[C@@H](OC1OC(CO)C(O)C(O)C1OC1OC(CO)C(O)C(OC(N)=O)C1O)c1cnc[nH]1 (some centres unmarked) [Compound 125066] .
Return: 0.79

Enquiry: Check HCV NS3 helicase NS3h_1b(con1) (Hepatitis C virus genotype 1b, UniProt Q9WMX2) data and give Int.* (Ratio) (Interference) for O=C([O][Hg][CH2]C1COC([CH2][Hg][O]C(=O)c2ccccc2)CO1)c1ccccc1 (centres unmarked) [Compound 30916] .
Return: 0.93

Enquiry: Check HCV NS3 helicase NS3h_1b(con1) (Hepatitis C virus genotype 1b, UniProt Q9WMX2) data and give Int.* (Ratio) (Interference) for C=Cc1cc(OC)c2c(c1)c(=O)oc1c2cc(OC)c2c(O)ccc(C3OC(C)C(O)C(C)(O)C3O)c21 (centres unmarked) [Compound 354844] .
Return: 0.93

Enquiry: Check HCV NS3 helicase NS3h_1b(con1) (Hepatitis C virus genotype 1b, UniProt Q9WMX2) data and give Int.* (Ratio) (Interference) for Cc1c2ccncc2cc2c1[nH]c1ccccc12 [Compound 87206] .
Return: 0.92
